Assay: Cytotoxicity, CCK8
Format: cell-based
Details: human, 12 h, read-out: cell viability LO2
Method: The absorbance of 450 nm was measured in an ELISA reader (BioTek-Synergy 4, USA). Then, cell viability was calculated, and the corresponding images were drawn with GraphPad Prism 9.
recorded endpoint: viability at 100 µM (%)
Supply the numeric figure in %, leaving out any unit text.

Which viability at 100 µM value belongs to CC(C)(C)c1[nH]cnc1/C=c1\[nH]c(=O)/c(=C/c2ccccc2)[nH]c1=O ?
81

* * *

Biological target: FtsZ (Staphylococcus aureus, UniProt P0A031)
Construct: His tag; made in house; host or cells: E. coli BL21(DE3)
Sequence (P0A031 1-390): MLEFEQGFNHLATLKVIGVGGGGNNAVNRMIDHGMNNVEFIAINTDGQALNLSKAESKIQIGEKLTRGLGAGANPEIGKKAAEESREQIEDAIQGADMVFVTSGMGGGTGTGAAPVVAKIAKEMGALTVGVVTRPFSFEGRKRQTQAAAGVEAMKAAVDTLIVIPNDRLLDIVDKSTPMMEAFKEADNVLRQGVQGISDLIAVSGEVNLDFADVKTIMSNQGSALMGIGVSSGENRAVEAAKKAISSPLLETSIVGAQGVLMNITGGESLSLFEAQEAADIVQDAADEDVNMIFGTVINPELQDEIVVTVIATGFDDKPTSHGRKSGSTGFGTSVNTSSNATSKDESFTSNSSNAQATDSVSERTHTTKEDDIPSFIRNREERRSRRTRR
Experiment: Sedimentation assay of FtsZ polymerization
Format: biochemical
Settings: 50 μM compound, 5 μM FtsZ, 37 °C 30 min
Structures can show the parent of a compound that is named as a salt.
recorded endpoint: effect on FtsZ sedimentation (polymerization amount)

[[record]]
molecule = "CC[C@]1(O)C[C@H]2CN(CCc3c([nH]c4ccccc34)[C@@](C(=O)OC)(c3cc4c(cc3OC)N(C=O)[C@H]3[C@@](O)(C(=O)OC)[C@H](OC(C)=O)[C@]5(CC)C=CCN6CC[C@]43[C@@H]65)C2)C1 [Compound 6, Vincristine sulfate]"
obs_value = "negligible effects"

[[record]]
molecule = "C[C@]12CC[C@@H]3c4ccc(OC(=O)N(CCCl)CCCl)cc4CC[C@H]3[C@@H]1CC[C@@H]2O"
obs_value = "negligible effects"

[[record]]
molecule = "CN(C)c1ccc2nc3ccc(=[N+](C)C)cc-3sc2c1"
obs_value = "negligible effects"

